# Assay type: in vivo, human
# Cond: human, plasma, oral, 100 mg, mean terminal half-life, range across all hepatic function groups
Measurement Kind: half-life

Record CN1CC[C@@H](NC(=O)Nc2ccc(C#N)cc2)C[C@@H]1c1nc2ccccc2[nH]1 [glasdegib] . Reported half-life: 18.4 to 20.7 h

---

# Assay type: in vivo, human
# Cond: human, plasma, po, 100 mg, tmax, total glasdegib, single oral 100 mg, fasted; severe hepatic impairment (n = 8); median (range)
Measurement Kind: Tmax (h)
Give your result in h as a bare value.

Query CN1CC[C@@H](NC(=O)Nc2ccc(C#N)cc2)C[C@@H]1c1nc2ccccc2[nH]1 [glasdegib] yields Tmax of 1

---

# Assay type: in vivo, human
# Cond: human, plasma, po, 100 mg, AUClast, total glasdegib, single oral 100 mg, fasted; moderate hepatic impairment (n = 8); geometric mean (%CV)
Measurement Kind: AUC(0-t) (ng·h/mL)
The reply should contain only the number, in ng·h/mL.

// sample CN1CC[C@@H](NC(=O)Nc2ccc(C#N)cc2)C[C@@H]1c1nc2ccccc2[nH]1 [glasdegib] , its AUC(0-t) was 11800

---

# Assay type: in vivo, human
# Cond: human, plasma, po, 100 mg, AUClast, total glasdegib, single oral 100 mg, fasted; severe hepatic impairment (n = 8); arithmetic mean ± SD
Measurement Kind: AUC(0-t)
Answer format reminder: number followed by unit.

The value of AUC(0-t) measured for the molecule `CN1CC[C@@H](NC(=O)Nc2ccc(C#N)cc2)C[C@@H]1c1nc2ccccc2[nH]1` turned out to be 8.48 µg·h/mL

---

# Format: in vivo, human
# Cond: human, plasma, po, 100 mg, tmax, total glasdegib, single oral 100 mg, fasted; normal hepatic function (n = 8); median (range)
Measurement Kind: Tmax (h)
The answer is to be given in h; state only the numeric part.

The measured Tmax associated with `CN1CC[C@@H](NC(=O)Nc2ccc(C#N)cc2)C[C@@H]1c1nc2ccccc2[nH]1` reads 1.5

---

# Assay type: in vivo, human
# Cond: human, plasma, po, 100 mg, AUCinf, total glasdegib, single oral 100 mg, fasted; severe hepatic impairment (n = 8); arithmetic mean ± SD
Measurement Kind: AUC(0-inf) (ng·h/mL)
Hi! Could you send only the number? It should be in ng·h/mL, unit omitted.

Note to self: AUC(0-inf) recorded for `CN1CC[C@@H](NC(=O)Nc2ccc(C#N)cc2)C[C@@H]1c1nc2ccccc2[nH]1` was 8660

---

# Type: in vivo, human
# Cond: human, plasma, po, 100 mg, AUCinf, total glasdegib, single oral 100 mg, fasted; moderate hepatic impairment (n = 8); geometric mean (%CV)
Measurement Kind: AUC(0-inf) (ng·h/mL)
Numbers only; they are read as ng·h/mL.

Record summary for CN1CC[C@@H](NC(=O)Nc2ccc(C#N)cc2)C[C@@H]1c1nc2ccccc2[nH]1 [glasdegib] : reported AUC(0-inf) = 11900

---

# Assay type: in vivo, human
# Cond: human, plasma, po, 100 mg, AUClast, total glasdegib, single oral 100 mg, fasted; normal hepatic function (n = 8); arithmetic mean ± SD
Measurement Kind: AUC(0-t) (ng·h/mL)
Please respond with the number in ng·h/mL and leave the unit unwritten.

Recorded result, CN1CC[C@@H](NC(=O)Nc2ccc(C#N)cc2)C[C@@H]1c1nc2ccccc2[nH]1 [glasdegib] , AUC(0-t): 11800

---

# Type: in vivo, human
# Cond: human, plasma, po, 100 mg, tmax, total glasdegib, single oral 100 mg, fasted; moderate hepatic impairment (n = 8); median (range)
Measurement Kind: Tmax (h)
Record the value in h, omitting the unit from your answer.

Entry `CN1CC[C@@H](NC(=O)Nc2ccc(C#N)cc2)C[C@@H]1c1nc2ccccc2[nH]1` ; Tmax = 2.5

---

# Type: in vivo, human
# Cond: human, plasma, po, 100 mg, AUCinf, total glasdegib, single oral 100 mg, fasted; moderate hepatic impairment (n = 8); arithmetic mean ± SD
Measurement Kind: AUC(0-inf) (ng·h/mL)
Write it as a number; the unit ng·h/mL goes unstated.

Record `CN1CC[C@@H](NC(=O)Nc2ccc(C#N)cc2)C[C@@H]1c1nc2ccccc2[nH]1` , field AUC(0-inf): 12300

---

# Assay type: in vivo, human
# Cond: human, plasma, po, 100 mg, AUClast, total glasdegib, single oral 100 mg, fasted; severe hepatic impairment (n = 8); geometric mean (%CV)
Measurement Kind: AUC(0-t) (ng·h/mL)
Reply with just the number (in ng·h/mL).

For record CN1CC[C@@H](NC(=O)Nc2ccc(C#N)cc2)C[C@@H]1c1nc2ccccc2[nH]1 [glasdegib] the listed AUC(0-t) is 7940

---

# Format: in vivo, human
# Cond: human, plasma, po, 100 mg, AUClast, total glasdegib, single oral 100 mg, fasted; normal hepatic function (n = 8); geometric mean (%CV)
Measurement Kind: AUC(0-t) (µg·h/mL)
Form entry: value (µg·h/mL) — number only.

# compound `CN1CC[C@@H](NC(=O)Nc2ccc(C#N)cc2)C[C@@H]1c1nc2ccccc2[nH]1` ; its AUC(0-t) = 10.6

# credit: paper PMC8359308
